- Target Under Test: PTK2-phosphorylation at tyrosine 397 (pY397) (Homo sapiens, UniProt Q05397)
- Construct: endogenous in cells
- Sequence (Q05397 whole entry): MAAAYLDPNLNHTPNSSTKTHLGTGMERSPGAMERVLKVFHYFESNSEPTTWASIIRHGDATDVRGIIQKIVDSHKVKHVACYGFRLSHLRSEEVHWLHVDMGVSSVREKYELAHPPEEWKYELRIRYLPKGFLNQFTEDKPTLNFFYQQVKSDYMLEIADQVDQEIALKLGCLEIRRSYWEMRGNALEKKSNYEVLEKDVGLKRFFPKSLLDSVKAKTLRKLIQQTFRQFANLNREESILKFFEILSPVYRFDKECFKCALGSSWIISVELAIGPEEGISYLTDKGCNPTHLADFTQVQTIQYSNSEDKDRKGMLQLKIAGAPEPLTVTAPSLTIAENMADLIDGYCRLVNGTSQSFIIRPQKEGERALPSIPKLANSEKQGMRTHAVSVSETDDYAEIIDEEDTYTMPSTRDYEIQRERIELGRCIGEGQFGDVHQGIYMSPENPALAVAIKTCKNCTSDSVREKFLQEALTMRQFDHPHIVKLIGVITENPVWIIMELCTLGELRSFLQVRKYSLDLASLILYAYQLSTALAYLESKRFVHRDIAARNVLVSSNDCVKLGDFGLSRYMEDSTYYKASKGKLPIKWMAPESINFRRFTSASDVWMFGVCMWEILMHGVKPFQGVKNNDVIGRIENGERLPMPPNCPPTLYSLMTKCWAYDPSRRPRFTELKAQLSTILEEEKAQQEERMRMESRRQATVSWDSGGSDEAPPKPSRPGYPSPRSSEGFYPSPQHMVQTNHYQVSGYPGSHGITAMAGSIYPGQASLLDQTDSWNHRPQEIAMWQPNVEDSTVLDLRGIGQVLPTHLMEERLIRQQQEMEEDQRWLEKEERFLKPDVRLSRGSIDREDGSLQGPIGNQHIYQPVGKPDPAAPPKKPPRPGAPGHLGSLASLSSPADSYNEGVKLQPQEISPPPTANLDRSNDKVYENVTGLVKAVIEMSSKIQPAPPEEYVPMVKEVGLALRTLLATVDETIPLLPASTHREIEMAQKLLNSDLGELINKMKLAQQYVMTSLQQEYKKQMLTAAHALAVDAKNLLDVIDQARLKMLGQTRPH
- Test Name: Phospho-PTK2 (pY397) Assay in PC-3 cells
- Condition Set: PC-3 prostate carcinoma cells, 2 h incubation; read-out: PC3pPTK2 Y397 EC50
pEC50: −log10 of the molar value.
Quantity Kind: pEC50

COC(=O)Nc1cc(OC)c(Nc2ncc(C(F)(F)F)c(NCc3ccc(F)cc3N(C)S(C)(=O)=O)n2)cc1C ... 8.52

a. COc1cc(CNCc2ccccc2)ccc1Nc1ncc(C(F)(F)F)c(NCc2ccc(C)cc2N(C)S(C)(=O)=O)n1
b. CCc1cc(C(=O)NC)ccc1Nc1ncc(C(F)(F)F)c(NCc2ccc(C)cc2N(C)S(C)(=O)=O)n1
c. CCN1CCC[C@@H](NC(=O)c2ccc(Nc3ncc(C(F)(F)F)c(NCc4ccc(C)cc4N(C)S(C)(=O)=O)n3)c(OC)c2)C1
Inquiry: Sort low-to-high on pEC50, please. Please write the labels in the order that was asked for.
Reply text: b, a, c
(b: 8.52, a: 9.15, c: 9.72)

a. CCCNC(=O)c1ccc(Nc2ncc(C(F)(F)F)c(NCc3ccc(F)cc3N(C)S(C)(=O)=O)n2)c(OC)c1
b. COc1cc(N2CCN(C(C)C)CC2)ccc1Nc1ncc(C(F)(F)F)c(NCc2ccc(F)cc2N(C)S(C)(=O)=O)n1
Inquiry: Among a and b , whose measured pEC50 is the smaller figure? Reply briefly: the label of your chosen item.
Reply text: a
(a: 8.52, b: 9.08)
